- testTarget: T1, metallo-beta-lactamase (beta-lactamase II, 5/B/6) (Bacillus cereus 5/B/6, UniProt P14488 SEQ:2-228)
- T1 sequence: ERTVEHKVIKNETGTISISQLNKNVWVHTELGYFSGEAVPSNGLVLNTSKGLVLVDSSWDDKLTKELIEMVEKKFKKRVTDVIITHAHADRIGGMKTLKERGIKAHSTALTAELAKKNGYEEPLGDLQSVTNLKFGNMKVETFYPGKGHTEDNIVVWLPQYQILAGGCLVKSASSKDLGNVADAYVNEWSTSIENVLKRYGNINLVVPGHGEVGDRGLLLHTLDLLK
- assay: inhibition; 4.3 mM cephalosporin C, 50 mM MOPS pH 7.0, no added Zn
- conditionDetails: tags: expressed in E. coli TAP56 from pRE2/bla
measuredAttribute: IC50 (nM)
Field: numeric (nM). Do not append units.

Exercise: # input binder: UGGCUGCAGGGUCUGGCCCCCCGUUUGGUG (ssRNA) [30-mer RNA] ; wanted: its IC50
Key: 11
